Provenance of the data: the Human Domainome abundance scans (Beltran et al. 2025)

Consider the following variants; for each one, report its abundance fitness.
B1: Zinc finger homeobox protein 4, residues 2086 to 2141; numbered along this chain, Q86UP3 (parent)
chain: RPRTRITDDQLKILRAYFDINNSPSEEQIQEMAEKSGLSQKVIKHWFRNTLFKERQ

# Variants of: B1
# assay-name: abundance fitness (aPCA) (normalised: wild type 0, dead -1); higher = more abundant; growth selection in yeast, the domain comes from the species named
# test-conditions: Homo sapiens
Answers are plain numbers.

Known results for variants:
RPRTRITDDQLKILRAYFDINNSPSEEQIQEMACKSGLSQKVIKHWFRNTLFKERQ [E34C] :: -0.429
RPRTRITDDQLKILRAYFDINNPPSEEQIQEMAEKSGLSQKVIKHWFRNTLFKERQ [S23P] :: -0.003
RPRTRITDDQLKILRAYFDINNSPSEEEIQEMAEKSGLSQKVIKHWFRNTLFKERQ [Q28E] :: -0.155
RPRTRITDDQLKILRAYFDGNNSPSEEQIQEMAEKSGLSQKVIKHWFRNTLFKERQ [I20G] :: -0.03
RPRTRITDDQLKILRAYFDINNSPSEEQIQEMAEMSGLSQKVIKHWFRNTLFKERQ [K35M] :: -0.304
RPRTRITDDQLKILRAYFDINNSPSEEQIQEMAEKSGLSQKVIKHWFRPTLFKERQ [N49P] :: -0.383
RPRTRITDDQLKILRAYFDINNSPSEEQIQEMAEKSGLSQKVIKHWFRNTLHKERQ [F52H] :: 0.018
RPRTRITDDQLKILRAYFDINNSPSEEQIQEMAEKEGLSQKVIKHWFRNTLFKERQ [S36E] :: -0.244

For each of the items listed, what is its abundance fitness?
1. RPRTRITDDQLKILRAYFDINNSPSEEQIQEMAEKSGLSQKVIKHWQRNTLFKERQ [F47Q]
2. RPRTRITDDQLKILRAYFDINNSPSEEAIQEMAEKSGLSQKVIKHWFRNTLFKERQ [Q28A]
3. RPRTRITDDQLKILRAYFDINGSPSEEQIQEMAEKSGLSQKVIKHWFRNTLFKERQ [N22G]

Reply |
1. -0.342
2. -0.092
3. 0.014
